system: Salmonella enterica typhimurium; test: growth AUC normalised to DMSO control (fraction of control); higher = less growth inhibition, active = hit call of the paper; settings: 20 µM
Structures can show the parent of a compound that is named as a salt.
Measured metric: growth AUC normalised to DMSO control
// return just the number, without any unit appended

Query: Given the entry c1ccc(-c2ccc(C(c3ccccc3)n3ccnc3)cc2)cc1 (stereo not given) , report its measured growth AUC normalised to DMSO control.
Reply: 1.01

Query: Recorded growth AUC normalised to DMSO control for NC(=O)c1cccnc1 [Nicotinamide] , please?
Reply: 1.02

Query: Which growth AUC normalised to DMSO control is reported for this compound? Cc1cc(=O)n(-c2ccccc2)n1C [Antipyrine]
Reply: 1

Query: Sample CN1CCN(C2=Nc3ccccc3Oc3ccc(Cl)cc32)CC1 [Loxapine succinate] — what was its growth AUC normalised to DMSO control?
Reply: 1

Query: Which growth AUC normalised to DMSO control value is on record for CCCCCCCN(CC)CCCC(O)c1ccc(NS(C)(=O)=O)cc1 (stereo not given) [Ibutilide fumarate] ?
Reply: 0.991
